# Experimental protocol: Lipid degradability by human lung S9 in vitro
# Format: in vitro ADME
# Condition: 2 μM lipid, 2.4 mg/ml lung S9, pH 7.4, 37° C.
Parameter: In vitro degradation Human lung S9 (h)
Numbers only, in h.

Reference set, count: 3
COc1cc(C(=O)OCCN(C)C)cc(OC)c1OC(=O)CCC(=O)O[C@H]1CC[C@@]2(C)C(=CC[C@H]3[C@@H]4CC[C@H]([C@H](C)CCCC(C)C)[C@@]4(C)CC[C@@H]32)C1 | 22.2
COc1cc(C(=O)OCCCN(C)C)cc(OC)c1OC(=O)CCO[C@H]1CC[C@@]2(C)C(=CC[C@H]3[C@@H]4CC[C@H]([C@H](C)CCCC(C)C)[C@@]4(C)CC[C@@H]32)C1 | 38.2
COc1cc(C(=O)OCCNC(=N)N)cc(OC)c1OC(=O)CCO[C@H]1CC[C@@]2(C)C(=CC[C@H]3[C@@H]4CC[C@H]([C@H](C)CCCC(C)C)[C@@]4(C)CC[C@@H]32)C1 | 39.2

Let us examine a further case.
Q: Quick one: give measured In vitro degradation Human lung S9 for COc1cc(C(=O)OCCCNC(=N)N)cc(OC)c1OC(=O)CCO[C@H]1CC[C@@]2(C)C(=CC[C@@H]3C2CC[C@]2(C)[C@@H]([C@H](C)CCCC(C)C)CC[C@@H]32)C1 (stereo partly shown)
A: 62.9
